# Tested Target: T1, soluble Homo sapiens CD131 comprising a C-terminal 6xHis tag (human, UniProt P32927 17-438)
# T1 construct: truncated after Ser438, C-terminal 6xHis; also called shCD131; shβc
# T1 sequence: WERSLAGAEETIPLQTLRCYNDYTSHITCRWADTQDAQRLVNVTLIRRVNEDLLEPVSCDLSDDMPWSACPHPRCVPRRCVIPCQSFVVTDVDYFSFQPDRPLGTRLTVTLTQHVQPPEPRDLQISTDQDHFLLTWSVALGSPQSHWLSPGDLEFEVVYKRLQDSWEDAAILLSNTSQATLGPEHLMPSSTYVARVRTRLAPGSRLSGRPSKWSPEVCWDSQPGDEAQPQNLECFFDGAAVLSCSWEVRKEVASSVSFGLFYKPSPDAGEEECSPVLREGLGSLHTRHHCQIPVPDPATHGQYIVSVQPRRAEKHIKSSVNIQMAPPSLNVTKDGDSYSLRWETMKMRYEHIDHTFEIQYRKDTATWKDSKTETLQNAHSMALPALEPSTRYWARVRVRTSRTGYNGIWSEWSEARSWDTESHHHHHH
# Test Details: SPR, Fab over captured shCD131
# Experimental: Binding kinetics were measured using SPR with a BIAcore™ A-100 instrument (GE Healthcare Life Sciences). […] shCD131 was captured on spots 1 and 5 of each flow cell for 2 minutes at a concentration of 0.4 μg/ml. […] For some analysis purified Fab was injected over each flow cell for 3 minutes and dissociation was monitored for a further 10 minutes. […] The analysis was performed with Fabs at several concentrations between 100 and 0.31 nM, with each concentration analyzed twice and in random order. […]
Observation Type: kon (M⁻¹ s⁻¹)
// note: answer is a bare numeric in M⁻¹ s⁻¹

Known results for binders:
[[record]]
binder = "9A2-VR26 Fab (Fab, V domains shown, recombinant Fab) VH: EVQLLESGGGLVQPGGSLRLSCAASGFTFIHYRVHWVRQAPGKGLEWVSSIRSSGGFTYYADSVKGRFTISRDNSKNTLYLQMNSLRAEDTAVYYCARFYDSFFDIWGQGTMVTVSS VL: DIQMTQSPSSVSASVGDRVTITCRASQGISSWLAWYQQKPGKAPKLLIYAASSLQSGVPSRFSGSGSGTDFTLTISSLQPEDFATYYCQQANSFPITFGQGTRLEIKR"
unit_spec = "M⁻¹ s⁻¹"
numeric_value = "2.4e+06"

[[record]]
binder = "9A2-VR24 Fab (Fab, V domains shown, recombinant Fab) VH: EVQLLESGGGLVQPGGSLRLSCAASGFTFPWYRVHWVRQAPGKGLEWVSSIRSSGGFTYYADSVKGRFTISRDNSKNTLYLQMNSLRAEDTAVYYCARFYDSFFDIWGQGTMVTVSS VL: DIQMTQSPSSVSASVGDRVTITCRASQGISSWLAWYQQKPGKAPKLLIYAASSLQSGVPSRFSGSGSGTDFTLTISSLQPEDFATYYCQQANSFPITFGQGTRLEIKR"
unit_spec = "M⁻¹ s⁻¹"
numeric_value = "2.3e+06"


For the next question, use this binder.
What does the record list as kon for 9A2 Fab (Fab, V domains shown, also called recombinant Fab of 9A2) VH: EVQLLESGGGLVQPGGSLRLSCAASGFTFSHYHMLWVRQAPGKGLEWVSSIRSSGGFTYYADSVKGRFTISRDNSKNTLYLQMNSLRAEDTAVYYCARFYDSFFDIWGQGTMVTVSS VL: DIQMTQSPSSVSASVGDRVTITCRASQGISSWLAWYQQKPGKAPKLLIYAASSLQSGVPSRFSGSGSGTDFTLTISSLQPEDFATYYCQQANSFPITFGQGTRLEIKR ?
2e+06

These measurements were taken from patent US20190062438A1.
